Reference source for all entries: PubChem BioAssay (Tox21)

target: Peroxisome proliferator-activated receptor gamma (Homo sapiens); experiment: qHTS assay to identify small molecule agonists of the peroxisome proliferator-activated receptor gamma (PPARg) signaling pathway (AID 743094); settings: HEK293H PPARg-UAS-bla, beta-lactamase FRET ratio, 17 h; series mostly up to 57 µM
Inconclusive results are not listed. The source made the active and inactive calls. The call rests on the fitted dose curve; in most records, active means well fitted activation curve with a large enough effect in the signal ratio in the repeat runs (not every such curve was filed as active); inconclusive means weak or mixed curves, or effect the other way; inactive means no such curve, though single readings can be large or run the other way; the % refers to the signal ratio.
QUANTITY NAME: activation

[
  {
    "MOLECULE": "C1=CCC(c2ccccc2)CC1 (stereo not given)",
    "TGT": "Peroxisome proliferator-activated receptor gamma (Homo sapiens)",
    "RESULT": "inactive"
  },
  {
    "MOLECULE": "NCCc1ccn[nH]1",
    "TGT": "Peroxisome proliferator-activated receptor gamma (Homo sapiens)",
    "RESULT": "inactive"
  },
  {
    "MOLECULE": "CN(C)CCCNCCC#N",
    "TGT": "Peroxisome proliferator-activated receptor gamma (Homo sapiens)",
    "RESULT": "inactive"
  },
  {
    "MOLECULE": "O=C(O)/C=C/c1ccccc1",
    "TGT": "Peroxisome proliferator-activated receptor gamma (Homo sapiens)",
    "RESULT": "inactive"
  },
  {
    "MOLECULE": "F[Si-2](F)(F)(F)(F)F",
    "TGT": "Peroxisome proliferator-activated receptor gamma (Homo sapiens)",
    "RESULT": "inactive"
  },
  {
    "MOLECULE": "O=C(Nc1cccc(C2=NCCN2)c1)Nc1cccc(C2=NCCN2)c1",
    "TGT": "Peroxisome proliferator-activated receptor gamma (Homo sapiens)",
    "RESULT": "inactive"
  },
  {
    "MOLECULE": "COC(/C=C(\\C)CCC=C(C)C)OC",
    "TGT": "Peroxisome proliferator-activated receptor gamma (Homo sapiens)",
    "RESULT": "inactive"
  },
  {
    "MOLECULE": "Cn1c(=O)c2c(ncn2CC2OCCO2)n(C)c1=O",
    "TGT": "Peroxisome proliferator-activated receptor gamma (Homo sapiens)",
    "RESULT": "inactive"
  },
  {
    "MOLECULE": "Cc1nc2ccccc2c(=O)o1",
    "TGT": "Peroxisome proliferator-activated receptor gamma (Homo sapiens)",
    "RESULT": "inactive"
  },
  {
    "MOLECULE": "Nc1cc(Cl)cc(S(=O)(=O)O)c1O",
    "TGT": "Peroxisome proliferator-activated receptor gamma (Homo sapiens)",
    "RESULT": "inactive"
  },
  {
    "MOLECULE": "C=CCOC(=O)c1ccc(C(=O)OCC=C)c(C(=O)OCC=C)c1",
    "TGT": "Peroxisome proliferator-activated receptor gamma (Homo sapiens)",
    "RESULT": "inactive"
  },
  {
    "MOLECULE": "NC(=O)NC(=O)Cc1ccccc1",
    "TGT": "Peroxisome proliferator-activated receptor gamma (Homo sapiens)",
    "RESULT": "inactive"
  },
  {
    "MOLECULE": "COc1cccc2sc(N)nc12",
    "TGT": "Peroxisome proliferator-activated receptor gamma (Homo sapiens)",
    "RESULT": "inactive"
  },
  {
    "MOLECULE": "C=CC(C)(O)CC/C=C(\\C)CC (stereo not given)",
    "TGT": "Peroxisome proliferator-activated receptor gamma (Homo sapiens)",
    "RESULT": "inactive"
  },
  {
    "MOLECULE": "CN(C1CCCCC1)S(=O)(=O)c1ccccc1N",
    "TGT": "Peroxisome proliferator-activated receptor gamma (Homo sapiens)",
    "RESULT": "inactive"
  }
]
